System: NCI-H522 lung
Protocol details: NCI-60 one-dose screen, 48 h
Condition parameters: 10 µM unless noted
The panel holds about 83,000 compounds, 20% with a hit somewhere; the sample as a whole holds those more often. The source made the active and inactive calls. The calls were made as follows: active = growth percent below 10; inactive = the rest.
In this exercise, the only acceptable responses are active, inactive

1. COC12C=C/C(=C(/C(=O)OCc3ccncc3)C(=O)CCCCCCCCC3(OC)C=C/C(=C(/C(=O)OCc4ccncc4)C(=O)CCCCCCCC1)O3)O2; active

State the result this test recorded for `CCCCCCCCCc1ccc(OCCOCCOCCOCCOCCOCCOCCOCCOCCO)cc1` .
active

State the result this test recorded for `OB1OCc2cc(/C=C/c3cccc(C(F)(F)F)c3)ccc21` .
active

State the result this test recorded for `Cc1ccc(C(=O)c2ccc(CC(=O)N/N=C/c3ccccc3O)n2C)cc1` .
inactive

State the result this test recorded for `COc1cc2c(cc1OCCCN1CCN(CCCOc3cc4c(cc3OC)C(=O)N3CC(F)(F)C[C@H]3C=N4)CC1)N=C[C@@H]1CC(F)(F)CN1C2=O` .
active

----------
Test system: MALME-3M melanoma
Protocol details: NCI-60 one-dose screen, 48 h
Condition parameters: 10 µM unless noted
Compounds without any hit were thinned out: in the full panel of roughly 83,000, 20% have a hit. The source made the active and inactive calls. How the source made its calls: active means growth percent below 10; inactive means the rest.
In this exercise, the only acceptable responses are active, inactive

1. COC(=O)[C@]1(C)CCC[C@]2(C)[C@H]3C[C@H]4C(C(C)C)=C[C@]3(CC[C@H]21)[C@@H]1C(=O)CC[C@H](OCCC#N)[C@@H]14; inactive
2. Nc1c(C(=O)Nc2ccccc2F)sc2nc3c(cc12)CCCC3; inactive
3. CSc1nc(N)c(NS(=O)(=O)c2ccc(C(C)=O)cc2)c(=O)[nH]1; inactive
4. Fc1cccc(Oc2ccc(Nc3ncnc4ccc(OCCCN5CCOCC5)cc34)cc2Cl)c1; inactive
5. CCCCNC(=O)Oc1ccc(/C(=C(/C)Cc2ccc(OC)cc2)c2ccc(OCCN(CC)CC)cc2)cc1; inactive

Now for another entry.
State the result this test recorded for `CN1CCc2nc3sc(C(N)=O)c(N)c3c(-c3cccs3)c2C1` .
inactive

----------
System: A549/ATCC NSCLC
Protocol details: NCI-60 one-dose screen, 48 h
Condition parameters: 10 µM unless noted
Method: Growth inhibition of the A549/ATCC human Non-Small Cell Lung tumor cell line is measured as a screen for anti-cancer activity. Cells are grown in 96 well plates and exposed to the test compound for 48 hours. Compounds are tested at a single concentration, which is 10^-5 M for most compounds. The reported endpoint is percent growth (GI% or GIPRCNT), where numbers from 0 - 100% represent growth inhibition, and numbers from -100% - 0 represent cell death. […]
The panel holds about 83,000 compounds, 20% with a hit somewhere; the sample as a whole holds those more often. Active and inactive are the calls of the source. How the source made its calls: active means growth percent below 10; inactive means the rest.
In this exercise, the only acceptable responses are active, inactive

State the result this test recorded for `COc1cc(-c2nc3sccn3c2-c2ccnc(NCCNS(=O)(=O)c3ccccc3)n2)ccc1F` .
inactive

State the result this test recorded for CC1CN(S(=O)(=O)c2oc(-c3ccc(Cl)cc3)nc2C#N)CC(C)O1 (centres undefined) .
inactive

State the result this test recorded for `CCCCCOC(=O)c1c(C)[nH]c(/C=C2\N=C(c3ccc[nH]3)C=C2OC)c1C` .
active

State the result this test recorded for `C=C(C)[C@@H]1CCC[C@]2(COS(=O)(=O)c3ccc(C)cc3)CC[C@]3(C)[C@@H](CC[C@@H]4[C@@]5(C)CCCNC(C)(C)[C@@H]5CC[C@]43C)[C@@H]12` .
active

----------
Test system: CAKI-1 renal
Protocol details: NCI-60 one-dose screen, 48 h (100 = growth as untreated, 0 = no growth, -100 = all killed)
Condition parameters: 10 µM unless noted
The panel holds about 83,000 compounds, 20% with a hit somewhere; the sample as a whole holds those more often. Calls of active or inactive are those of the source. The calls were made as follows: active = growth percent below 10; inactive = the rest.
Readout name: growth

Briefly, growth measured for `Cn1cc(-c2ccc3nc(-c4ccc(CC(=O)ONc5cc(C(C)(C)C)on5)cc4)cnc3c2)cn1` : 6.91% (active)

Briefly, growth measured for CCOC(=O)C(=O)C(C(=O)OCC)c1ccccc1 (configuration not stated) : 97.9% (inactive)

Briefly, growth measured for Nc1c(C(=O)Nc2ccncc2)sc2nc3c(cc12)C(O)CCC3 (configuration not stated) : 99.6% (inactive)

Briefly, growth measured for `CCOC(=O)NC(C)C` : 98.2% (inactive)

----------
System: M14 melanoma
Protocol details: NCI-60 one-dose screen, 48 h (100 = growth as untreated, 0 = no growth, -100 = all killed)
Condition parameters: 10 µM unless noted
Procedure: Growth inhibition of the M14 human tumor cell line is measured as a screen for anti-cancer activity. Cells are grown in 96 well plates and exposed to the test compound for 48 hours. Compounds are tested at a single concentration, which is 10^-5 M for most compounds. The reported endpoint is percent growth (GI% or GIPRCNT), where numbers from 0 - 100% represent growth inhibition, and numbers from -100% - 0 represent cell death. For example, a value of 40 represents 60% growth inhibition. […]
Compounds without any hit were thinned out: in the full panel of roughly 83,000, 20% have a hit.
Listing of entries alongside the reported growth.
The reply should be a number in %, with the unit left off.

Example cases with answers are listed next.
1. O=C(O)c1ccc(-n2cc(/C=N/Nc3ccccc3)c(-c3ccc(F)cc3F)n2)cc1; 41.8
2. Cc1cc(C(=O)Nc2ncc(Cc3cccc(C(F)(F)F)c3)s2)c2ccccc2n1; 3.81

Briefly, growth measured for Clc1ccc2c(NC3CCC(N4CCOCC4)CC3)ccnc2c1 (stereo not drawn) : 84

----------
System: SK-MEL-5 melanoma
Protocol details: NCI-60 one-dose screen, 48 h (100 = growth as untreated, 0 = no growth, -100 = all killed)
Condition parameters: 10 µM unless noted
The panel holds about 83,000 compounds, 20% with a hit somewhere; the sample as a whole holds those more often.
Listing of entries alongside the reported growth.
The reply should be a number in %, with the unit left off.

Example cases with answers are listed next.
1. O=C(/C=C/c1cccc(Cl)c1)c1cccc(OCCCOc2cccc(C(=O)/C=C/c3cccc(Cl)c3)c2)c1; 100
2. Cc1cccc(/C=C/c2c(C(=O)/C=C/c3ccccc3)c(C)nc3ccccc23)c1; -58.1
3. COC1=CC(c2ccc[nH]2)=N/C1=C\c1[nH]c(C)c(CC(=O)OCc2ccccc2)c1CCC(=O)OCc1ccccc1; -93.8
4. CC(C)c1ccc(C(=O)Nc2nc3ccc(O)c(CN(C)C)c3s2)cc1; 74.4

Reported growth (SK-MEL-5 melanoma) for entry CCN1C(=O)N(CC)C2C1NN=c1s/c(=C\c3ccccc3F)c(=O)n12 (centres undefined) is -21.1

Reported growth (SK-MEL-5 melanoma) for entry CN(C)CC1CCC(CN(C)C)C1=O (centres undefined) is 108

Reported growth (SK-MEL-5 melanoma) for entry `C#CCOc1ccc2ncnc(Nc3ccc(NC(=O)C=C)cc3)c2c1` is 13.1

Reported growth (SK-MEL-5 melanoma) for entry `O=C(NNC(=O)c1ccc(NC(=O)c2ccccn2)cc1)Nc1ccc([N+](=O)[O-])cc1` is 102

Reported growth (SK-MEL-5 melanoma) for entry `C=C(C)[C@@H]1CC[C@]2(CO)CC[C@]3(C)[C@H](CC[C@@H]4[C@@]5(C)CC[C@H](NCO)C(C)(C)[C@@H]5CC[C@]43C)[C@@H]12` is -90.1

----------
Tested on: SK-OV-3 ovarian
Protocol details: NCI-60 one-dose screen, 48 h (100 = growth as untreated, 0 = no growth, -100 = all killed)
Condition parameters: 10 µM unless noted
Compounds without any hit were thinned out: in the full panel of roughly 83,000, 20% have a hit.
Readout name: growth (%)
The reply should be a number in %, with the unit left off.

1. CCc1ccccc1-n1c(-c2ccc(OC)cc2)cc(-c2ccc(OC)cc2)c(C#N)c1=O; 54
2. CCCC/C(CC)=N\NS(=O)(=O)c1ccc([N+](=O)[O-])cc1; 95.9
3. CCSc1nc2scc(C)c2c(=O)[nH]1; 98.5

Now examine the next entry.
Briefly, growth measured for `N#Cc1c(-c2ccccc2)cc(-c2ccccc2)n(CCCC(=O)Nc2ccccc2N)c1=O` : 95.6

----------
Test system: HT29 colon
Protocol details: NCI-60 one-dose screen, 48 h
Condition parameters: 10 µM unless noted
About 83,000 compounds went through this panel and 20% of them were active in at least one assay; those are over-represented in the sample as a whole. Calls of active or inactive are those of the source. How the source made its calls: active means growth percent below 10; inactive means the rest.
In this exercise, the only acceptable responses are T (active), F (inactive)

Solved entries (count: 6):
1. COCCn1cc(-c2nc(-c3cc4cccnc4[nH]3)cs2)c2cc(OC)ccc21; F
2. COc1ccc(C(=O)Nc2cccc(-c3cc(=O)c4c(OC)c(OC)c(OC)cc4o3)c2)cc1; F
3. O=C(Nc1ccc(Oc2cccc(Cl)c2)c(Cl)c1)c1cnccn1; T
4. CCN(CC)CC(O)COc1c(Br)c(Br)c(Br)c2c1OC(C)(C)C2 (stereo not given); F
5. CN(C)CC(C)(C)C(=O)/C=C/c1ccccc1; T
6. COc1cc2c(c(OC)c1OC)CCC(c1cccc(NC(=O)c3ccc(Br)cc3)c1)O2 (stereo not given); F

State the result this test recorded for `COc1ccc(C2=C(Nc3ccc(C(=O)Nc4ccccc4)cc3)C(=O)N(C)C2=O)cc1` .
F

State the result this test recorded for `O=C(NNC(=O)c1ccc(NC(=O)c2ccccn2)cc1)Nc1ccc([N+](=O)[O-])cc1` .
F

State the result this test recorded for `Cn1ccnc1C(=O)/C=C/c1ccc(C(=O)Nc2ccccc2O)cc1` .
F

Data credit: PubChem BioAssay (NCI)
